# absorbance at 490 nm values compiled below
biological target: M4; assay: ELISA on coated antigen, column M4
Respond using a number only.

Worked examples, 3 binders total:
Binder	absorbance at 490 nm
PDL1-16E12 (antibody, V domains shown, Only FR/CDR pieces are tied to the clone; also called parent antibody) VH: QMQLVQSGAEVKKPGSSVKVSCKASGGTFSSYAISWVRQAPGQGLEWMGRIIPILGIANYAQKFQGRVTITADKSTSTAYMELSSLRSEDTAVYYCAKPRDGYNLVAFDIWGQGTMVTVSS VL: QLVLTQPPSVSGAPGQTVTISCTGSSSNIGAGYDVHWYQQLPGTAPKLLIYGNNNRPSGVPDRFSGSKSGALASLAITGLQAEDGADYHCQSYDNSLSAHAVFGTGTKVTVL	0.4
PDL1-31B7 (antibody, V domains shown, Only FR/CDR pieces are tied to the clone) VH: QVQLVESGAEVKKPGSSVKVSCKASGGTFSSYAISWVRQAPGQGLEWMGRIIPILGIANYAQKFQGRVTITADKSTSTAYMELSSLRSEDTAVYYCARASSGYSVGAFDIWGQGTMVTVSS VL: QLVLTQPPSVSAPPGQKVTISCSGSSSNIGNNYVSWYQQLPGTAPKLLIYDNNERPSGIPDRFSASKSGTSATLGISGLQTGDEADYYCGTWDSSLSAGVFGGGTKLTVL	0.7
PDL1-30B1 (antibody, V domains shown, Only FR/CDR pieces are tied to the clone) VH: QVQLVESGGGVVQPGRSLRLSCAASGFTFSSYAMHWVRQGPGKGLEWVAVISYDGSNEFYADSVKGRFTISRDNSKNTLYLQMNSLRAEDTAVYYCARGDYNGVYMDVWGQGTTVTVSS VL: DIVMTQTPLSLSVTPGQPASISCKSSQSLLHSDGKTYLYWYLQKPGQSPQLLIYEVSKRFSGVPDRFSGSGSGTDFTLKIGRVEAEDVGVYYCMQGLHLPYTFGQGTKLEIK	2.6

Now consider a different binder.
Could you tell me which absorbance at 490 nm is on file for PDL1-11A7 (antibody, V domains shown, Only FR/CDR pieces are tied to the clone) VH: QVQLVQSGAEVKKPGASVKVSCKVSGYTLTELSMHWVRQAPGKGLEWMGGFDPEDGETIYAQKFQGRVTMTEDTSTDTAYMELSSLRSEDTAVYYCARDPWGGYYGMDVWGQGTTVTVSS VL: DIQMTQSPSSVSASVGDRVTINCRASQGIRTWLAWYQQKPGKAPKLLIYAASNLQSGVPSRFSGSGSGTDFTLTIASLQPEDFATYYCQQANSFPLTFGGGTKVEIK ?
2.4
